Each entry below carries its recorded Ratio IC50.
- Test system: K562
- RUN_DESCRIPTION: Resistance index, ratio of IC50 for human K562/ADR cells to IC50 for human K562 cells
- Format: functional
Please reply with the number alone, leaving off any unit.

>>> recorded_result("COc1cc([C@@H]2c3cc4c(cc3[C@H](OC(=O)c3cc5ccccc5s3)[C@H]3COC(=O)[C@H]23)OCO4)cc(OC)c1OC")
2.532
>>> recorded_result("COc1cc([C@@H]2c3cc4c(cc3[C@H](OC(=O)c3nccc5ccccc35)[C@H]3COC(=O)[C@H]23)OCO4)cc(OC)c1OC")
2.765
>>> recorded_result("COc1cc([C@@H]2c3cc4c(cc3[C@@H](O[C@@H]3O[C@@H]5CO[C@@H](C)O[C@H]5[C@H](O)[C@H]3O)[C@H]3COC(=O)[C@H]23)OCO4)cc(OC)c1O [ETOPOSIDE]")
6.408
>>> recorded_result("COc1cc([C@@H]2c3cc4c(cc3[C@H](OC(=O)c3ccc5nc(C)ccc5c3)[C@H]3COC(=O)[C@H]23)OCO4)cc(OC)c1OC")
0.953
>>> recorded_result("COc1cc([C@@H]2c3cc4c(cc3[C@H](OC(=O)c3cc(C)on3)[C@H]3COC(=O)[C@H]23)OCO4)cc(OC)c1OC")
2.08

So, COc1cc([C@@H]2c3cc4c(cc3[C@H](OC(=O)c3cnn(C)c3)[C@H]3COC(=O)[C@H]23)OCO4)cc(OC)c1OC ? Its Ratio IC50 was 2.673

So, COc1cc([C@@H]2c3cc4c(cc3[C@H](OC(=O)c3cnc5ccccc5n3)[C@H]3COC(=O)[C@H]23)OCO4)cc(OC)c1OC ? Its Ratio IC50 was 1.545

----------
- RUN_DESCRIPTION: Antiproliferative activity against human K562/ADR cells measured after 72 hrs by CCK8 assay
- Type: functional, cell-based
Classification scheme (IC50): low band = under 60 nM, middle band = from 60 nM up to 900 nM, high band = 900 nM and over

>>> category_label("COc1cc([C@@H]2c3cc4c(cc3[C@H](OC(=O)c3cn(C5CC5)c5cc(Cl)c(F)cc5c3=O)[C@H]3COC(=O)[C@H]23)OCO4)cc(OC)c1OC")
"middle band"

With those in mind, consider the next molecule.
Place this molecule in its band: COc1cc([C@@H]2c3cc4c(cc3[C@H](OC(=O)c3ccco3)[C@H]3COC(=O)[C@H]23)OCO4)cc(OC)c1OC
low band

----------
Each entry below carries its recorded pIC50.
- RUN_DESCRIPTION: Antiproliferative activity against human K562/ADR cells measured after 72 hrs by CCK8 assay
- Type: functional, cell-based
Lab note: report pIC50 as minus log10 of the concentration in molar units, number only.

Sample records with pIC50:
>>> recorded_result("COc1cc([C@@H]2c3cc4c(cc3[C@H](OC(=O)c3cnn(C)c3)[C@H]3COC(=O)[C@H]23)OCO4)cc(OC)c1OC")
6.86
>>> recorded_result("COc1cc([C@@H]2c3cc4c(cc3[C@H](OC(=O)c3cnc5ccccc5n3)[C@H]3COC(=O)[C@H]23)OCO4)cc(OC)c1OC")
7.47
>>> recorded_result("COc1cc([C@@H]2c3cc4c(cc3[C@H](OC(=O)c3cscn3)[C@H]3COC(=O)[C@H]23)OCO4)cc(OC)c1OC")
7.13

So, COc1cc([C@@H]2c3cc4c(cc3[C@H](OC(=O)c3cc5ccccc5s3)[C@H]3COC(=O)[C@H]23)OCO4)cc(OC)c1OC ? Its pIC50 was 6.33

----------
Each entry below carries its recorded Ratio IC50.
- Test system: K562
- RUN_DESCRIPTION: Resistance index, ratio of IC50 for human K562/ADR cells to IC50 for human K562 cells
- Type: functional
Please reply with the number alone, leaving off any unit.

>>> recorded_result("COc1cc([C@@H]2c3cc4c(cc3[C@H](OC(=O)c3nn(C)c5ccccc35)[C@H]3COC(=O)[C@H]23)OCO4)cc(OC)c1OC")
2.446
>>> recorded_result("COc1cc([C@@H]2c3cc4c(cc3[C@H](OC(=O)c3cn(C)cn3)[C@H]3COC(=O)[C@H]23)OCO4)cc(OC)c1OC")
10.86
>>> recorded_result("COc1cccc2c1C(=O)c1c(O)c3c(c(O)c1C2=O)C[C@@](O)(C(=O)CO)C[C@@H]3O[C@H]1C[C@H](N)[C@H](O)[C@H](C)O1")
85.359
>>> recorded_result("COc1cc([C@@H]2c3cc4c(cc3[C@H](OC(=O)c3cn(C5CC5)c5cc(Cl)c(F)cc5c3=O)[C@H]3COC(=O)[C@H]23)OCO4)cc(OC)c1OC")
1.803
>>> recorded_result("COc1cc([C@@H]2c3cc4c(cc3[C@H](OC(=O)c3ccco3)[C@H]3COC(=O)[C@H]23)OCO4)cc(OC)c1OC")
1.28

Next item in the queue.
So, COc1cc([C@@H]2c3cc4c(cc3[C@H](OC(=O)c3cscn3)[C@H]3COC(=O)[C@H]23)OCO4)cc(OC)c1OC ? Its Ratio IC50 was 2.114

----------
- RUN_DESCRIPTION: Antiproliferative activity against human K562/ADR cells measured after 72 hrs by CCK8 assay
- Type: functional, cell-based
Each entry below carries its recorded IC50.
Use nM as the unit, but write only the number.

Sample records with IC50:
>>> recorded_result("COc1cc([C@@H]2c3cc4c(cc3[C@H](OC(=O)c3ccc5nc(C)ccc5c3)[C@H]3COC(=O)[C@H]23)OCO4)cc(OC)c1OC")
61
>>> recorded_result("COc1cc([C@@H]2c3cc4c(cc3[C@H](OC(=O)c3nccc5ccccc35)[C@H]3COC(=O)[C@H]23)OCO4)cc(OC)c1OC")
177
>>> recorded_result("COc1cc([C@@H]2c3cc4c(cc3[C@H](OC(=O)c3cn(C)cn3)[C@H]3COC(=O)[C@H]23)OCO4)cc(OC)c1OC")
858
>>> recorded_result("COc1cc([C@@H]2c3cc4c(cc3[C@@H](O[C@@H]3O[C@@H]5CO[C@@H](C)O[C@H]5[C@H](O)[C@H]3O)[C@H]3COC(=O)[C@H]23)OCO4)cc(OC)c1O [ETOPOSIDE]")
2210
>>> recorded_result("COc1cccc2c1C(=O)c1c(O)c3c(c(O)c1C2=O)C[C@@](O)(C(=O)CO)C[C@@H]3O[C@H]1C[C@H](N)[C@H](O)[C@H](C)O1")
18800
>>> recorded_result("COc1cc([C@@H]2c3cc4c(cc3[C@H](OC(=O)c3nn(C)c5ccccc35)[C@H]3COC(=O)[C@H]23)OCO4)cc(OC)c1OC")
115

So, COc1cc([C@@H]2c3cc4c(cc3[C@H](OC(=O)c3cc(C)on3)[C@H]3COC(=O)[C@H]23)OCO4)cc(OC)c1OC ? Its IC50 was 52
